Data provenance is PubChem BioAssay (NCI).

system: HCT-15 colon; assay: NCI tumour cell line growth inhibition, 48 h
Where a SMILES comes first, the peptide text is derived from it. The star is where a group is joined. Boc = CC(C)(C)OC(=O)*
ASSAY_METRIC: TGI

>  <MOLECULE>
O=c1[nH]c(=O)n(COCc2ccccc2)c2ccc([N+](=O)[O-])cc12

>  <ASSAY_METRIC>
TGI

>  <EXPERIMENTAL_VALUE>
> 100 µM

$$$$
>  <MOLECULE>
COC(=O)C(Cc1c[nH]c2ccccc12)NC(=O)C(Cc1c[nH]c2ccccc12)NC(=O)C(Cc1c[nH]c2ccccc12)NC(=O)C(Cc1c[nH]c2ccccc12)NC(=O)OC(C)(C)C (centres undefined) (Boc-WWWW-OMe; configuration not given here)

>  <ASSAY_METRIC>
TGI

>  <EXPERIMENTAL_VALUE>
> 100 µM

$$$$
>  <MOLECULE>
COc1c(OC)c(O)c2c(=O)c(OC)c(-c3ccc4c(c3)OCO4)oc2c1O

>  <ASSAY_METRIC>
TGI

>  <EXPERIMENTAL_VALUE>
> 100 µM

$$$$
>  <MOLECULE>
Cc1cc(Nc2ccc(N=Nc3ccc(O)c4ncccc34)cc2)nc(C)n1

>  <ASSAY_METRIC>
TGI

>  <EXPERIMENTAL_VALUE>
36 µM

$$$$

---

system: SW-620 colon; assay: NCI tumour cell line growth inhibition, 48 h
Quick list: TGI per entry.

>  <COMPOUND>
Cc1[nH]c(C(=O)Nc2ccc(C(=O)N3CCNCC3)cc2OC(C)C)c(Cl)c1Cl

>  <COMPARATIVE_SIGN>
=

>  <TGI (µM)>
3.59

$$$$
>  <COMPOUND>
Cc1ccc2c[c]1[Hg][CH2]COS2(=O)=O

>  <COMPARATIVE_SIGN>
=

>  <TGI (µM)>
31.6

$$$$
>  <COMPOUND>
CCN(CC)CC(=O)/C=C/c1ccc(C)cc1

>  <COMPARATIVE_SIGN>
=

>  <TGI (µM)>
30.3

$$$$
>  <COMPOUND>
NC1C2C(CC(=O)O)OCC=C3CN4CCC1(C(=O)C(=O)O)C4CC32 (stereo not drawn)

>  <COMPARATIVE_SIGN>
>

>  <TGI (µM)>
100

$$$$
>  <COMPOUND>
CC1=C(SCc2ccccc2)C(=O)c2ccccc2C1=O

>  <COMPARATIVE_SIGN>
>

>  <TGI (µM)>
100

$$$$
>  <COMPOUND>
COc1cc2c(c(OC)c1OC)-c1ccc(NNC(=S)N(Cc3cccc(C[N+](Cc4cccc(CNC56CC7CC(CC(C7)C5)C6)c4)(Cc4cccc(CNC56CC7CC(CC(C7)C5)C6)c4)Cc4cccc(CN(C(=S)NNc5ccc6c(cc5=O)[C@@H](NC(C)=O)CCc5cc(OC)c(OC)c(OC)c5-6)C56CC7CC(CC(C7)C5)C6)c4)c3)C34CC5CC(CC(C5)C3)C4)c(=O)cc1[C@@H](NC(C)=O)CC2 (stereo partly drawn)

>  <COMPARATIVE_SIGN>
=

>  <TGI (µM)>
2.06

$$$$
>  <COMPOUND>
CN(C)C(=S)NN=C(c1ccccn1)c1ccccn1

>  <COMPARATIVE_SIGN>
>

>  <TGI (µM)>
40.2

$$$$
>  <COMPOUND>
Cn1c(=O)c(Oc2cccc(F)c2)cc2cnc(NC3CCOCC3)nc21

>  <COMPARATIVE_SIGN>
>

>  <TGI (µM)>
25

$$$$
